Values of IC50 reported for JAK1 (Homo sapiens, UniProt P23458) appear below.

compound: CC(C)S(=O)(=O)N1CC(CCF)(n2cc(-c3nc(-c4cnn(C)c4)cc4nccn34)cn2)C1
IC50: > 1000 nM

compound: Cn1cc(-c2cc3nccn3c(-c3ccn([C@@H](C[C@@H](O)C(F)(F)F)C4CC4)c3)n2)cn1
IC50: 100 to 1000 nM

compound: COC(=O)CC(c1ccc(F)cc1)n1cc(-c2nc(-c3cnn(C)c3)cc3nccn23)cn1 (stereo not drawn)
IC50: > 1000 nM

compound: CC(C1CC1)n1cc(-c2nc(-c3cnn(C)c3)cc3nccn23)cn1 (stereo not drawn)
IC50: > 1000 nM

compound: C[C@H](O)C[C@@H](C1CC1)n1cc(-c2nc(-c3cnn(C)c3)cc3nccn23)cn1
IC50: > 1000 nM

compound: Cn1cc(-c2cc3nccn3c(-c3cnn(C4(CCO)CN(S(=O)(=O)C(F)(F)F)C4)c3)n2)cn1
IC50: 100 to 1000 nM

compound: Cn1cc(-c2cc3nccn3c(-c3cnn(C(CCO)C4CCCCC4)c3)n2)cn1 (stereo not drawn)
IC50: > 1000 nM

compound: Cn1cc(-c2cc3nccn3c(-c3cnn(C4(CCF)CCC4)c3)n2)cn1
IC50: 100 to 1000 nM

compound: Cn1cc(-c2cc3nccn3c(-c3cnn(C4(CC(C)(C)O)CN(S(=O)(=O)C(F)(F)F)C4)c3)n2)cn1
IC50: 100 to 1000 nM

###

# target: JAK3 (Homo sapiens, UniProt P52333)
# Sequence (P52333 whole entry): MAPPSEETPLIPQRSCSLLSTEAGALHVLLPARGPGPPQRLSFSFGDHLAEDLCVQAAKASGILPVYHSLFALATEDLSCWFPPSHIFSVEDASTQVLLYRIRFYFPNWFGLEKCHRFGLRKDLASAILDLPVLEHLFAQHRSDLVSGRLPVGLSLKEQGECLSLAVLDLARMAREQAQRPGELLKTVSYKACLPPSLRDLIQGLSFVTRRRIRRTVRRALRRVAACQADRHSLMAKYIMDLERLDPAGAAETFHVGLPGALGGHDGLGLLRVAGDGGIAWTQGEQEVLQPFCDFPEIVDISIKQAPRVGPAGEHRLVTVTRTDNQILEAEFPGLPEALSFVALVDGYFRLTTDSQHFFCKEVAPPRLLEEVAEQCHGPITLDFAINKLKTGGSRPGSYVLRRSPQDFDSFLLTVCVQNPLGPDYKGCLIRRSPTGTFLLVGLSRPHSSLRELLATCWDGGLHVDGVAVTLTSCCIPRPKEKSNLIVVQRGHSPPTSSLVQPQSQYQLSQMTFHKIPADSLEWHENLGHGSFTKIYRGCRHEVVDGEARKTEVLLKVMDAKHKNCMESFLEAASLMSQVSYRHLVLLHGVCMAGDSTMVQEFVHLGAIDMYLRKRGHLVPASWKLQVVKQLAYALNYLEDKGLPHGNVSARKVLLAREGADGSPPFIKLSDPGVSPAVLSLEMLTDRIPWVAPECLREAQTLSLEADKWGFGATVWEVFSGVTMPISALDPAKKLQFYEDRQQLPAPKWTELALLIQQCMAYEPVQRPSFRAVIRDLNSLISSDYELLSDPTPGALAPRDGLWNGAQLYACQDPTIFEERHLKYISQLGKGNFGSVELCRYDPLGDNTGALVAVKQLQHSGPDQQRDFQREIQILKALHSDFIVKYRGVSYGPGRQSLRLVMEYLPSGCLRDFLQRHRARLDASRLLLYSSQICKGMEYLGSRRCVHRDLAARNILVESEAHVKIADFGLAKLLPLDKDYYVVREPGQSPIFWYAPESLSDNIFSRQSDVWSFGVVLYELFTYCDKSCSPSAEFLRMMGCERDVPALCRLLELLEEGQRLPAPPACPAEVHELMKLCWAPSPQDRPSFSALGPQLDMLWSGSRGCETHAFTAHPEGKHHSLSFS
pIC50: −log10 of the molar value.
pIC50 values, listed per item

molecule: Cn1cc(-c2cc3nccn3c(-c3cnn(C(CC(N)=O)C4CC4)c3)n2)cn1 (centres unmarked)
pIC50: < 6.00

molecule: CC[C@H](CCF)n1cc(-c2nc(-c3cnn(C)c3)cc3nccn23)cn1
pIC50: 6.00 to 7.00

molecule: Cn1cc(-c2cc3nccn3c(-c3cnn(C(CCO)C4CC4(F)F)c3)n2)cn1 (centres unmarked)
pIC50: < 6.00

molecule: CC(=O)CC(C1CC1)n1cc(-c2nc(-c3cnn(C)c3)cc3nccn23)cn1 (centres unmarked)
pIC50: < 6.00

molecule: C#CCCn1cc(-c2nc(-c3cnn(C)c3)cc3nccn23)cn1
pIC50: 6.00 to 7.00

molecule: COCCC(C1CCCC1)n1cc(-c2nc(-c3cnn(C)c3)cc3nccn23)cn1 (centres unmarked)
pIC50: < 6.00

molecule: COCCC(c1ccc(F)cc1)n1cc(-c2nc(-c3cnn(C)c3)cc3nccn23)cn1 (centres unmarked)
pIC50: 6.00 to 7.00

molecule: Cn1cc(-c2cc3nccn3c(-c3cnn(C4(CCF)CN(S(=O)(=O)C(F)F)C4)c3)n2)cn1
pIC50: 7.00 to 8.00

molecule: Cn1cc(-c2cc3nccn3c(-c3cnn(C(CO)C4CC4)c3)n2)cn1 (centres unmarked)
pIC50: < 6.00

molecule: Cn1cc(-c2cc3nccn3c(-c3cnn(C(C/C=C\F)C4CC4)c3)n2)cn1 (centres unmarked)
pIC50: 6.00 to 7.00

molecule: Cn1cc(-c2cc3nccn3c(-c3cnn(C4(CCF)CN(S(C)(=O)=O)C4)c3)n2)cn1
pIC50: 6.00 to 7.00

###

This section lists pIC50 readings for JAK2 (Homo sapiens, UniProt O60674).
pIC50: −log10 of the molar value.
property_measured: pIC50

molecule: CCC(CCCO)n1cc(-c2nc(-c3cnn(C)c3)cc3nccn23)cn1 (centres unmarked)
measured: 6.00 to 7.00
--
molecule: CC#CCCn1cc(-c2nc(-c3cnn(C)c3)cc3nccn23)cn1
measured: < 6.00
--
molecule: C#CCC(C1CC1)n1cc(-c2nc(-c3cnn(C)c3)cc3nccn23)cn1 (centres unmarked)
measured: 7.00 to 8.00
--
molecule: CN(C)C(=O)N1CC(CCF)(n2cc(-c3nc(-c4cnn(C)c4)cc4nccn34)cn2)C1
measured: < 6.00
--
molecule: Cn1cc(-c2cc3nccn3c(-c3cnn(C(CCC(F)F)C4CC4)c3)n2)cn1 (centres unmarked)
measured: 7.00 to 8.00

###

# target: JAK2 (Homo sapiens)
# Construct: purchased Invitrogen Corporation, Carlsbad, Calif; IVGN PV4288
# Sequence (O60674 whole entry): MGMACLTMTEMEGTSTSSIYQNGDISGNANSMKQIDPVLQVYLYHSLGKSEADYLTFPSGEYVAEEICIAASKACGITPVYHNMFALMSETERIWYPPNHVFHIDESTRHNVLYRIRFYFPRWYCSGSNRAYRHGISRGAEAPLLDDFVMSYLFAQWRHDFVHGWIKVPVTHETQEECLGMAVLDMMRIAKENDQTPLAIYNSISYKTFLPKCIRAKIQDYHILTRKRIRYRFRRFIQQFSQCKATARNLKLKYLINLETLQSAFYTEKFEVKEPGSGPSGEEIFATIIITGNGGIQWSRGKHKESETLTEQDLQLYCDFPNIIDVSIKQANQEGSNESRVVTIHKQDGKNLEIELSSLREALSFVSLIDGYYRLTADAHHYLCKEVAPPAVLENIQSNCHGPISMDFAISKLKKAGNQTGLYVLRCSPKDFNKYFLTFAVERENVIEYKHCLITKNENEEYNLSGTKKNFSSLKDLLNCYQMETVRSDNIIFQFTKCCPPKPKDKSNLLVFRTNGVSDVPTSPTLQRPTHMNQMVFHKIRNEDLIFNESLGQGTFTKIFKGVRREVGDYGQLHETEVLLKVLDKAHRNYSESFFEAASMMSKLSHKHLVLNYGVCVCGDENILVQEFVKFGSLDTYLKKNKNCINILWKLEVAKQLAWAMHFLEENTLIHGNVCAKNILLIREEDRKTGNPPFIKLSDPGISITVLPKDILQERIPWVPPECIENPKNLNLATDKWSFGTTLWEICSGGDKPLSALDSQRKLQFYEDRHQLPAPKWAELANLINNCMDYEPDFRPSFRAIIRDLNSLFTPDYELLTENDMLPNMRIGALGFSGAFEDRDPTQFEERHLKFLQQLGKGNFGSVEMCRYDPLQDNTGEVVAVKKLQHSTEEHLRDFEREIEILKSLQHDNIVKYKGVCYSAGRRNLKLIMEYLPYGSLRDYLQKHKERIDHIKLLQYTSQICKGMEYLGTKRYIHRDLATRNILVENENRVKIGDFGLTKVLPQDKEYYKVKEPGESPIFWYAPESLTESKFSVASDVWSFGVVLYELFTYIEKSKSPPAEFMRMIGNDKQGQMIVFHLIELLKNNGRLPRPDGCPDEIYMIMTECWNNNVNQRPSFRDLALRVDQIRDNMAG
# measurement_protocol: JAK2 Inhibition Assay (Omnia kinase fluorescence peptide substrate)
# Assay type: biochemical
# settings: averaged IC50 ranges; 25 μM (Km app) or 1 mM ATP, 5 nM JAK2
pIC50: −log10 of the molar value.
Measured pIC50 of individual entries

molecule: CCC(CCF)n1cc(-c2nc(-c3cnn(C)c3)cc3nccn23)cn1 (centres unmarked) [Example 57]
pIC50: 6.00 to 7.00
--
molecule: Cn1cc(-c2cc3nccn3c(-c3cnn(C4CCCC4)c3)n2)cn1 [Example 34]
pIC50: 6.00 to 7.00
--
molecule: COCCC1(n2cc(-c3nc(-c4cnn(C)c4)cc4nccn34)cn2)CN(S(=O)(=O)C(F)(F)F)C1 [Example 100]
pIC50: 7.00 to 8.00
--
molecule: COC(=O)CC(c1ccc(F)cc1)n1cc(-c2nc(-c3cnn(C)c3)cc3nccn23)cn1 (centres unmarked) [Example 80]
pIC50: 6.00 to 7.00
--
molecule: CCOCCC1(n2cc(-c3nc(-c4cnn(C)c4)cc4nccn34)cn2)CN(S(=O)(=O)C(F)(F)F)C1 [Example 33]
pIC50: 7.00 to 8.00
